Target: T1, recombinant human IFN-γ protein (human, UniProt P01579 24-166, limits assumed)
T1 construct: Bought protein; also called interferon gamma; R&D systems 285-IF-100
T1 sequence: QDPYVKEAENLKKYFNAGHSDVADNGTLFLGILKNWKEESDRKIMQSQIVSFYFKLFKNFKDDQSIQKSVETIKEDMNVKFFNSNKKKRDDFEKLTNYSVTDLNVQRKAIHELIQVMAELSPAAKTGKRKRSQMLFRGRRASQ
Assay: BLI (Octet RED96), mAb captured on AHC biosensor, recombinant human IFN-γ in solution, 1:1 model
# kon listing for each entry below
Form entry: value (M⁻¹ s⁻¹) — number only.

Please review the entries below; each comes with its answer.
[[record]]
binder = "antibody 2B6 (antibody, human IgG1, V domains shown, Human IgG1 lambda) VH: EVQLVESGGGLVKPGGSLRLSCAASGFPFSRYSMHWVRQAPGKGLEWVSSMTSRTNHKYYADSLKGRFLISRDNDRDSLYLEMNSLGVEDTAIYFCARGYDTSGSDSGVDFQYWGQGTLVTVSS VL: NFMLTQPHSVSESPGKTITISCTRGRGYIASYYVQWYQQRPGGVPKIVVFEDTQRPSGVPDRISGSIDTSTNSASLTISGLQTEDEADYYCQSYDDANHVIFGGGTKLTVL"
quantitative_result = "1.48e+06"

[[record]]
binder = "antibody 1E8 (antibody, human IgG1, V domains shown, Human IgG1 lambda) VH: EVQLLESGGGLVQPGGPLRLSCAASGFTFSIYSMNWVRQAPGKGLEWVSSISGSGDNTYYADSVKGRFTITRDSSKNTLYLQMNTLRAEDTAVYFCAKSGRNIISPGFDSWGQGTLVTVSS VL: QPVLTQPPSASASLGASVTLTCTLNSDYGDYKVDWYQQRPGKGPRFVMRVGTGGIVGSKGDGIPDRFSVLGSGLNRFLTIKNIQEEDESDYYCGADHGSANNFIWVFGGGTKLTVL"
quantitative_result = 464000

[[record]]
binder = "antibody 2A6 (antibody, human IgG1, V domains shown, partial N-linked glycosylation at Asn-76 of the VH, Human antibody from a single B cell, cloned into human IgG1 lambda expression vectors and made in FreeStyle 293-F cells) VH: EVQLVESGGGLVKPGDSLTVSCVASGFTFSNYFIHWVRQAPGKGLEWVATISGRTKYMFYSDSLRGRFTVSRDNANNSVYLHMSSLRGEDTALYYCVRGYDHSDSNSAADLLHWGRGTLVTVSS VL: NFMLTQPLSVSGYPGKTIVISCVRSSGSVASHYVQWFQQRPGSAPAMVIYEDSHRPSGIPDRFSGSVDASSNSASLTISGLKTEDEADYFCQSYYGNNQVLFGGGTKLTVL"
quantitative_result = "1.08e+06"


Indicate the recorded kon value for this binder: antibody 2F2 (antibody, human IgG1, V domains shown, Human IgG1 lambda) VH: EVQLVESGGGLVKPGESLRLACVASGFNFSDYYMTWIRQAPGKGLEWVSYISNSGSHTYYADAVKGRFTVSRDNAKNSLYLQMTSLRGEDTAIYFCARDPSIMRGTYYMDVWGKGTTVTVSS VL: QSVLTQPPSASGTPGQRVTISCSGSSSNIGTNPVSWYQQFPGMAPKLLIYFNNQRPSGVPERFSGSKSGTPASLAIGGLQSEDEANYYCASWDDTLNGLVFGGGTKLTVL 344000
